The values you see were collected from the Human Domainome abundance scans (Beltran et al. 2025).

B1: Ankyrin repeat and SAM domain-containing protein 6, residues 774 to 836; numbered along this chain, Q68DC2 (parent)
chain: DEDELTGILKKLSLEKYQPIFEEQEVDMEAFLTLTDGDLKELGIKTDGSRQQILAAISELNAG

- Variants of: B1
- ASSAY TEXT: abundance fitness (aPCA) (normalised: wild type 0, dead -1); higher = more abundant; growth selection in yeast, the domain comes from the species named
- PROTOCOL CONDITIONS: Homo sapiens
EXPERIMENTAL ENDPOINT: abundance fitness
// no unit, no text: just the number

Input line: GET /values?readout=abundance fitness&item= T33Y
Output line: -0.496

Input line: GET /values?readout=abundance fitness&item= S13H
Output line: 0.075

Input line: GET /values?readout=abundance fitness&item= L12Q
Output line: -0.567

Input line: GET /values?readout=abundance fitness&item= R50H
Output line: -0.527

Input line: GET /values?readout=abundance fitness&item= K10D
Output line: -0.663

Input line: GET /values?readout=abundance fitness&item= F31A
Output line: -0.37

Input line: GET /values?readout=abundance fitness&item= L12P
Output line: -1.16

Input line: GET /values?readout=abundance fitness&item= E15C
Output line: -0.343

Input line: GET /values?readout=abundance fitness&item= I20H
Output line: -0.213

Input line: GET /values?readout=abundance fitness&item= E41C
Output line: -0.113

Input line: GET /values?readout=abundance fitness&item= D1G
Output line: -0.039

Input line: GET /values?readout=abundance fitness&item= G7V
Output line: -0.191

Input line: GET /values?readout=abundance fitness&item= E41T
Output line: -0.039

Input line: GET /values?readout=abundance fitness&item= L54I
Output line: -0.133

Input line: GET /values?readout=abundance fitness&item= D36H
Output line: -0.584

Input line: GET /values?readout=abundance fitness&item= V26N
Output line: -0.664

Input line: GET /values?readout=abundance fitness&item= D3K
Output line: 0.162

Input line: GET /values?readout=abundance fitness&item= G43K
Output line: -0.326

Input line: GET /values?readout=abundance fitness&item= D1E
Output line: -0.103

Input line: GET /values?readout=abundance fitness&item= E23T
Output line: -0.231

Input line: GET /values?readout=abundance fitness&item= E22A
Output line: -0.107

Input line: GET /values?readout=abundance fitness&item= R50V
Output line: -0.492

Input line: GET /values?readout=abundance fitness&item= E2A
Output line: -0.029

Input line: GET /values?readout=abundance fitness&item= E41M
Output line: -0.263

Input line: GET /values?readout=abundance fitness&item= A56I
Output line: -0.486

Input line: GET /values?readout=abundance fitness&item= S13V
Output line: -0.567

Input line: GET /values?readout=abundance fitness&item= T35W
Output line: -0.879

Input line: GET /values?readout=abundance fitness&item= D3N
Output line: -0.074

Input line: GET /values?readout=abundance fitness&item= T33G
Output line: -0.057

Input line: GET /values?readout=abundance fitness&item= L5M
Output line: -0.116

Input line: GET /values?readout=abundance fitness&item= A62W
Output line: -0.475

Input line: GET /values?readout=abundance fitness&item= Q52W
Output line: -0.805

Input line: GET /values?readout=abundance fitness&item= K10P
Output line: -0.525

Input line: GET /values?readout=abundance fitness&item= D47C
Output line: -0.128

Input line: GET /values?readout=abundance fitness&item= L54C
Output line: -0.075

Input line: GET /values?readout=abundance fitness&item= E15A
Output line: -0.271

Input line: GET /values?readout=abundance fitness&item= S58Y
Output line: -0.466

Input line: GET /values?readout=abundance fitness&item= T35V
Output line: -0.687

Input line: GET /values?readout=abundance fitness&item= T33I
Output line: -0.507

Input line: GET /values?readout=abundance fitness&item= E29L
Output line: -0.51

Input line: GET /values?readout=abundance fitness&item= I44E
Output line: -0.586

Input line: GET /values?readout=abundance fitness&item= K10E
Output line: -0.084

Input line: GET /values?readout=abundance fitness&item= L39N
Output line: -0.514

Input line: GET /values?readout=abundance fitness&item= S49K
Output line: -0.186

Input line: GET /values?readout=abundance fitness&item= M28Q
Output line: -0.29

Input line: GET /values?readout=abundance fitness&item= I44M
Output line: -0.253

Input line: GET /values?readout=abundance fitness&item= G63P
Output line: -0.052

Input line: GET /values?readout=abundance fitness&item= D27I
Output line: -0.827

Input line: GET /values?readout=abundance fitness&item= E59C
Output line: -0.272

Input line: GET /values?readout=abundance fitness&item= L34I
Output line: -0.627

Input line: GET /values?readout=abundance fitness&item= R50C
Output line: -0.363

Input line: GET /values?readout=abundance fitness&item= I44L
Output line: -0.245

Input line: GET /values?readout=abundance fitness&item= K10L
Output line: -0.656

Input line: GET /values?readout=abundance fitness&item= L34K
Output line: -0.309

Input line: GET /values?readout=abundance fitness&item= S58K
Output line: 0.157

Input line: GET /values?readout=abundance fitness&item= A30D
Output line: -0.273

Input line: GET /values?readout=abundance fitness&item= A56H
Output line: -0.147

Input line: GET /values?readout=abundance fitness&item= R50S
Output line: -0.524

Input line: GET /values?readout=abundance fitness&item= S13E
Output line: -0.002

Input line: GET /values?readout=abundance fitness&item= S13Q
Output line: 0.042

Input line: GET /values?readout=abundance fitness&item= V26Q
Output line: -0.589

Input line: GET /values?readout=abundance fitness&item= R50Y
Output line: -0.834

Input line: GET /values?readout=abundance fitness&item= E23H
Output line: -0.429

Input line: GET /values?readout=abundance fitness&item= L12K
Output line: -0.256

Input line: GET /values?readout=abundance fitness&item= G37W
Output line: -0.331

Input line: GET /values?readout=abundance fitness&item= K16H
Output line: 0.011

Input line: GET /values?readout=abundance fitness&item= I20W
Output line: -0.252

Input line: GET /values?readout=abundance fitness&item= E15D
Output line: -0.158

Input line: GET /values?readout=abundance fitness&item= G63V
Output line: -0.135

Input line: GET /values?readout=abundance fitness&item= Y17F
Output line: -0.045

Input line: GET /values?readout=abundance fitness&item= D36R
Output line: -0.72

Input line: GET /values?readout=abundance fitness&item= E59I
Output line: -0.505

Input line: GET /values?readout=abundance fitness&item= N61T
Output line: -0.001

Input line: GET /values?readout=abundance fitness&item= K16A
Output line: 0.074

Input line: GET /values?readout=abundance fitness&item= K40W
Output line: -0.263

Input line: GET /values?readout=abundance fitness&item= G37F
Output line: -0.051

Input line: GET /values?readout=abundance fitness&item= I8E
Output line: -0.206

Input line: GET /values?readout=abundance fitness&item= Q24H
Output line: -0.261

Input line: GET /values?readout=abundance fitness&item= G48T
Output line: 0.149

Input line: GET /values?readout=abundance fitness&item= K11T
Output line: -0.428

Input line: GET /values?readout=abundance fitness&item= L60V
Output line: -0.03

Input line: GET /values?readout=abundance fitness&item= L32G
Output line: -0.251

Input line: GET /values?readout=abundance fitness&item= Y17G
Output line: -0.399

Input line: GET /values?readout=abundance fitness&item= S58M
Output line: -0.205

Input line: GET /values?readout=abundance fitness&item= G37R
Output line: -0.111

Input line: GET /values?readout=abundance fitness&item= Y17D
Output line: -0.322

Input line: GET /values?readout=abundance fitness&item= E25F
Output line: -0.166

Input line: GET /values?readout=abundance fitness&item= D3V
Output line: -0.267

Input line: GET /values?readout=abundance fitness&item= L14I
Output line: -0.332

Input line: GET /values?readout=abundance fitness&item= I8L
Output line: 0.149

Input line: GET /values?readout=abundance fitness&item= E29T
Output line: -0.123
